assay.name: NCI Yeast Anticancer Drug Screen. Data for the bub3 strain (AID 167)
measurement.setup: S. cerevisiae bub3 mutant strain, at 50.0 µM (retest, dose inferred, filed as 5.0), active compounds read high
The panel holds about 79,000 compounds, 15% with a hit somewhere; the sample as a whole holds those more often.
result.type: growth inhibition (%)
Answers are plain numbers, in %.

Hi, could you look up growth inhibition for each item in my list?
1. COC1=C(/C(=N/Nc2ccc([N+](=O)[O-])cc2[N+](=O)[O-])c2ccccc2)COC1=O
2. CCCNCCCC(C)Nc1cc(OC)cc2c(C)ccnc12 (stereo not drawn)
3. CN(C)c1ccc(C(=O)C2CCCC(C)(C)C2)cc1 (stereo not drawn)
4. C=C1CC2(CCCC3(CC(=C)C(=O)O3)C2(C)C)OC1=O (stereo not drawn)
5. CCC[CH2][Sn]([Cl])([CH2]CCC)[S]/C(C#N)=N/N=C/c1ccc(N(C)C)cc1
6. C=CCOC(=O)C#CCCCC
7. O=C1O/C(=C(/Cl)c2c3ccccc3cc3ccccc23)c2ccccc21

-3
80
47
96
98
11
95

Hi, could you look up growth inhibition for each item in my list?
1. CCN(CC)CC(O)c1c(-c2ccccc2)c(-c2ccccc2)c2n1CCC2 (stereo not drawn)
2. N#CC1C(=O)NC(=O)CC1c1ccccc1 (stereo not drawn)

1: 90; 2: 99

----------
Would you kindly list growth inhibition for each of these compounds?
assay.name: NCI Yeast Anticancer Drug Screen. Data for the cln2 rad14 strain (AID 165);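 note: 0% = growth equal to vehicle treated cultures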
measurement.setup: S. cerevisiae cln2 rad14 strain, at 50.0 µM, active compounds read high
The panel holds about 79,000 compounds, 15% with a hit somewhere; the sample as a whole holds those more often.
Give bare numbers, in %.

Guide cases for growth inhibition, answers given:
[[record]]
compound = "COC(=O)/C=C/c1cccc[n+]1[O-]"
result_type = "growth inhibition"
observed_measurement = 54.8

[[record]]
compound = "O=c1nc(NC(c2ccccc2)(c2ccccc2)c2ccccc2)ccn1CCNCCn1ccc(NC(c2ccccc2)(c2ccccc2)c2ccccc2)nc1=O"
result_type = "growth inhibition"
observed_measurement = 89.2

[[record]]
compound = "CCCCCCC(=O)CCCCCC/C=C\\CC1OC(=O)C(N)(CO)C1O (stereo unspecified)"
result_type = "growth inhibition"
observed_measurement = 90

[[record]]
compound = "COC(=O)C(=Cc1c[nH]c2ccccc12)C(=O)OC"
result_type = "growth inhibition"
observed_measurement = 16.3

[[record]]
compound = "CSc1c(S(C)=O)c2ccccc2n1C (stereo unspecified)"
result_type = "growth inhibition"
observed_measurement = -6.4


Kindly consider the entry below.
Tell me the measured growth inhibition of N#C/C(=C1C=C/C(=N/O)C=C/1Cl)c1ccccc1 , please.
69.5

----------
assay.name: NCI Yeast Anticancer Drug Screen. Data for the rad50 strain (AID 155);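 note: 0% = growth of vehicle-only cultures of the same strain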
measurement.setup: S. cerevisiae rad50 strain growth inhibition; at 50.0 µM
Compounds without any hit were thinned out: in the full panel of roughly 79,000, 15% have a hit. Active and inactive are the calls of the source. Cut-off read from the data, not from the text of the source: active = growth inhibition above about 70%; inactive = the rest.
Entry note: the call must match one of 1 = active, -1 = inactive

Study these solved cases before continuing.
[[record]]
compound = "N#CSc1ccc(O)cc1"
assigned_label = 1

[[record]]
compound = "N#CS/C(Cl)=C(/C(Cl)=C(Cl)Cl)[N+](=O)[O-]"
assigned_label = 1

[[record]]
compound = "CCOC(=O)c1[nH]c(Br)c(-c2ccc(OC)c(OC)c2)c1Br"
assigned_label = 1


What did this assay record as the result for CS(=O)(=O)n1c(C(O)c2ccccc2)nc2ccccc21 (stereo not given) ?
-1

What did this assay record as the result for CCOc1ccccc1/C=C1\C=Nc2ccccc21 ?
-1
